# credit: paper PMC4060102

pIC50: recorded values
# Test system: GM15850 cells (FRDA lymphoblastoid cell line)
# experiment description: In-cell deacetylase inhibition assay (DAC assay)
# Assay type: cell-based, human
# condition label: Homo sapiens, 4 h incubation
Worth noting: pIC50 values are minus log10 of concentrations stated in mol/L.

Below are worked cases with known answers.
{"structure smiles string": "Nc1ccccc1NC(=O)/C=C/c1cn(CCOc2ccc3cc[nH]c3c2)nn1", "measure": "pIC50", "reported result": 4.53}
{"structure smiles string": "Nc1ccccc1NC(=O)/C=C/c1cn(C/C=C/c2ccc3cc[nH]c3c2)nn1", "measure": "pIC50", "reported result": 5.29}

[Q] Find the recorded pIC50 belonging to "Nc1ccccc1NC(=O)/C=C/c1cn(CC=Cc2ccccc2)nn1" and report it.
[A] 5.25

---

# experiment description: Brain penetration in mouse
# Assay type: in vivo
# condition label: brain and plasma
measure: Kp

[Q] Dear colleague, I am looking for the recorded Kp of the following molecule: "Nc1ccccc1NC(=O)/C=C/c1cn(C/C=C/c2ccc3cc[nH]c3c2)nn1"
[A] 0.03

---

# experiment description: Acid stability determination
# Type: physicochemical
# condition label: 0.01 M HCl in deionized water; pH = 2, 50 °C; read-out: t1/2 in acidic conditions (converted)
Let's look at some compounds and their measured half-life at 100 µM.
Answer in h, number only, no unit symbol.

# example entries with known answers
{"compound": "Nc1ccccc1NC(=O)/C=C/c1cn(C/C=C/c2ccc3cc[nH]c3c2)nn1 [Click-2]", "reported result": 24}
{"compound": "Cc1ccc(C(=O)NCCCCCC(=O)Nc2ccccc2N)cc1 [compound 109]", "reported result": 6}

Now take the following compound into account.
[Q] Can you share its half-life at 100 µM? I mean this compound: Nc1ccccc1NC(=O)/C=C/c1cn(CC=Cc2ccccc2)nn1 [Click-1]
[A] 33

---

# Tested on: GM15850 cells (FRDA lymphoblastoid cell line)
# experiment description: In-cell deacetylase inhibition assay (DAC assay)
# Type: cell-based, human
# condition label: 4 h incubation
# Description: Compound dilutions were made in 100% DMSO followed by parallel dilution in media with 2% DMSO. […] The final concentration of DMSO in each well was 0.2%.
measure: pIC50
# pIC50: negative log10 of molar concentration; output just the value

[Q] Reported pIC50 for GM15850 cells (FRDA lymphoblastoid cell line), given Nc1ccccc1NC(=O)c1ccc(CNC(=O)OCc2cccnc2)cc1 [MS-275, reference compound] ?
[A] 5.72

---

# Tested on: Hct116 cells
# experiment description: Cytotoxicity, antiproliferation assay
# Type: cell-based
# condition label: Hct116 cells
measure: IC50 (nM)
Give the value in nM but do not write nM after it.

[Q] Recorded IC50 for Nc1ccccc1NC(=O)c1ccc(CNC(=O)OCc2cccnc2)cc1 [MS-275, reference compound] , please?
[A] 1000

---

// pIC50 lookup, one value per entry
# experimental system: HDAC3/NcoR2 (Homo sapiens, UniProt O15379)
# Sequence (O15379 whole entry): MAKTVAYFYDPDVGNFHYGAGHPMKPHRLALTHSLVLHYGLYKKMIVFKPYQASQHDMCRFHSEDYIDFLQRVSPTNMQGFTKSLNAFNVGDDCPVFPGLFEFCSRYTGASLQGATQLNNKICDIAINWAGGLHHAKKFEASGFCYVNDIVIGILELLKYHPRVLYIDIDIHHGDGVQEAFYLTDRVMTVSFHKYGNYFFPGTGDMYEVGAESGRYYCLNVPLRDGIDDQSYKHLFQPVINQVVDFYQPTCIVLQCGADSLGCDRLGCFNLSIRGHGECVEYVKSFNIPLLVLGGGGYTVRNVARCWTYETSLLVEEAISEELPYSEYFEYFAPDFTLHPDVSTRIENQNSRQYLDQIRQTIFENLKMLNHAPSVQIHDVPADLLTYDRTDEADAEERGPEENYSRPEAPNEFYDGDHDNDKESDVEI
# Sequence (Q9Y618 395-489 partner limits assumed): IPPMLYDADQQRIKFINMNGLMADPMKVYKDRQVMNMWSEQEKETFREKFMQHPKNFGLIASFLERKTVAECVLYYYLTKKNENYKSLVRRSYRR
# experiment description: HDAC enzyme inhibition assay (Fluor-de-Lys), HDAC3
Please express pIC50 as -log10 of the molar concentration.

{"structure smiles string": "Nc1ccccc1NC(=O)/C=C/c1cn(C/C=C/c2ccc3cc[nH]c3c2)nn1", "experimental system": "HDAC3/NcoR2 (Homo sapiens, UniProt O15379)", "pIC50": 7.41}

[Q] Lab request: please report pIC50 under test system HDAC3/NcoR2 (Homo sapiens, UniProt O15379) for "Nc1ccccc1NC(=O)/C=C/c1cn(CC=Cc2ccccc2)nn1"
[A] 7.55
